ASSAY EXPLANATION: qHTS of pediatric cancer cell lines to identify multiple opportunities for drug repurposing: Primary screen for NB1643 cells (AID 1347099); further: nearly all actives have a fitted effect of over 50% in size
ASSAY SETUP: NB1643 neuroblastoma viability, CellTiter-Glo luminescence, 48 h; series mostly up to 46 µM
Protocol: Drug repurposing or repositioning has been offered as a strategy for drug development in oncology programs. This approach has special potential for childhood cancers and other rare or orphan diseases, where the expected return on new drug development has been a disincentive to pharmaceuticals. […] We employed a titration-based paradigm (quantitative high-throughput screening or qHTS), where all compounds were tested at multiple concentrations for their effect on cell viability. […]
Results filed as inconclusive are left out. Calls of active or inactive are those of the source. The call rests on the fitted dose curve; in most records, active means well fitted cell-killing curve with a large enough effect; inconclusive means small, poorly fitted or top-dose-only effect; inactive means no such curve, though single readings can be large or run the other way.
Outcomes: active, inactive

[
  {
    "MOLECULE": "COc1ccc(Cc2nccc3cc(OC)c(OC)cc23)cc1OC",
    "LABEL CLASS": "inactive"
  },
  {
    "MOLECULE": "OCCOc1ccccc1",
    "LABEL CLASS": "inactive"
  },
  {
    "MOLECULE": "C[C@]12CCC(=O)C(O)=C1CC[C@@H]1[C@@H]2CC[C@]2(C)C(=O)CC[C@@H]12",
    "LABEL CLASS": "inactive"
  },
  {
    "MOLECULE": "C[C@H]1O[C@@H](O[C@H]2[C@@H](O)C[C@H](O[C@H]3[C@@H](O)C[C@H](O[C@H]4CC[C@@]5(C)[C@H](CC[C@@H]6[C@@H]5CC[C@]5(C)[C@@H](C7=CC(=O)OC7)CC[C@]65O)C4)O[C@@H]3C)O[C@@H]2C)C[C@H](O)[C@@H]1O",
    "LABEL CLASS": "active"
  },
  {
    "MOLECULE": "CC(C)(C)CC(C)(C)c1ccc(O)cc1",
    "LABEL CLASS": "inactive"
  },
  {
    "MOLECULE": "Cc1cc(SCc2sc(-c3ccc(C(F)(F)F)c(F)c3)nc2C)ccc1OCC(=O)O",
    "LABEL CLASS": "inactive"
  },
  {
    "MOLECULE": "C#CCOC(C(=O)OCCN(C)C)(c1ccccc1)c1ccccc1",
    "LABEL CLASS": "inactive"
  },
  {
    "MOLECULE": "COc1ccccc1N1CCNCC1",
    "LABEL CLASS": "inactive"
  },
  {
    "MOLECULE": "CC(=O)[C@H]1CC[C@H]2[C@@H]3CC[C@H]4C[C@H](O)CC[C@]4(C)[C@H]3C(=O)C[C@]12C",
    "LABEL CLASS": "inactive"
  },
  {
    "MOLECULE": "Cn1cc(C2=C(c3cn(C4CCN(Cc5ccccn5)CC4)c4ccccc34)C(=O)NC2=O)c2ccccc21",
    "LABEL CLASS": "inactive"
  },
  {
    "MOLECULE": "CC(C)CC(N(C)C)C1(c2ccc(Cl)cc2)CCC1 (stereo unspecified)",
    "LABEL CLASS": "inactive"
  },
  {
    "MOLECULE": "N[C@@H]1C[C@H]1c1ccccc1",
    "LABEL CLASS": "inactive"
  },
  {
    "MOLECULE": "CC[C@@H](CO)NC(=O)[C@@H]1C=C2c3cccc4[nH]cc(c34)C[C@H]2N(C)C1",
    "LABEL CLASS": "inactive"
  },
  {
    "MOLECULE": "CCN(CC)C(=O)N[C@@H]1C=C2c3cccc4[nH]cc(c34)C[C@@H]2N(C)C1",
    "LABEL CLASS": "inactive"
  },
  {
    "MOLECULE": "COc1ccc(C(CN(C)C)C2(O)CCCCC2)cc1 (stereo unspecified)",
    "LABEL CLASS": "inactive"
  },
  {
    "MOLECULE": "O=C(O)c1ccc2[nH]cc(CCCCN3CC=C(c4ccccc4)CC3)c2c1",
    "LABEL CLASS": "inactive"
  },
  {
    "MOLECULE": "Oc1cc(Cl)ccc1Oc1ccc(Cl)cc1Cl",
    "LABEL CLASS": "active"
  },
  {
    "MOLECULE": "O=C(O)C(=O)c1cn(Cc2ccccc2)c2ccc(-c3ccc(OC(F)(F)F)cc3)cc12",
    "LABEL CLASS": "active"
  },
  {
    "MOLECULE": "COc1ccc(C(=O)c2c(C)n(CCN3CCOCC3)c3ccccc23)cc1",
    "LABEL CLASS": "inactive"
  },
  {
    "MOLECULE": "Oc1ccccc1-c1ccccc1",
    "LABEL CLASS": "inactive"
  },
  {
    "MOLECULE": "NP(N)(=O)NC(=O)c1ccc(F)cc1",
    "LABEL CLASS": "inactive"
  },
  {
    "MOLECULE": "CCN(CC)CCOC(=O)C(O)(c1ccccc1)c1ccccc1",
    "LABEL CLASS": "inactive"
  },
  {
    "MOLECULE": "CN1C[C@H](CNC(=O)OCc2ccccc2)C[C@@H]2c3cccc4c3c(cn4C)C[C@H]21",
    "LABEL CLASS": "inactive"
  },
  {
    "MOLECULE": "NCC(O)c1ccc(O)cc1 (stereo unspecified)",
    "LABEL CLASS": "inactive"
  },
  {
    "MOLECULE": "Clc1ccc(COC(Cn2ccnc2)c2ccc(Cl)cc2Cl)cc1 (stereo unspecified)",
    "LABEL CLASS": "active"
  },
  {
    "MOLECULE": "Cc1ccc(-c2nc3ccc(C)cn3c2CC(=O)N(C)C)cc1",
    "LABEL CLASS": "inactive"
  },
  {
    "MOLECULE": "CC(C)(C)NCC(O)c1cc(Cl)c(N)c(Cl)c1 (stereo unspecified)",
    "LABEL CLASS": "inactive"
  },
  {
    "MOLECULE": "N[C@@H](Cc1ccc(Oc2cc(I)c(O)c(I)c2)c(I)c1)C(=O)O",
    "LABEL CLASS": "inactive"
  },
  {
    "MOLECULE": "O=C1NCN(c2ccccc2)C12CCN(CC1COc3ccccc3O1)CC2 (stereo unspecified)",
    "LABEL CLASS": "inactive"
  },
  {
    "MOLECULE": "CC(C)=CC1C(C(=O)OCc2cccc(Oc3ccccc3)c2)C1(C)C (stereo unspecified)",
    "LABEL CLASS": "inactive"
  },
  {
    "MOLECULE": "Clc1cccc(N2CCNCC2)c1",
    "LABEL CLASS": "inactive"
  },
  {
    "MOLECULE": "CC(C)=CCOc1c2occc2cc2ccc(=O)oc12",
    "LABEL CLASS": "inactive"
  },
  {
    "MOLECULE": "CN1C(=S)CN=C(c2ccccc2)c2cc(Cl)ccc21",
    "LABEL CLASS": "inactive"
  },
  {
    "MOLECULE": "C=C1C[C@@H]2[C@H](CC[C@]3(C)C(=O)CC[C@@H]23)[C@@]2(C)C=CC(=O)C=C12",
    "LABEL CLASS": "inactive"
  },
  {
    "MOLECULE": "CCC1(C2=NCCN2)Cc2ccccc2O1 (stereo unspecified)",
    "LABEL CLASS": "inactive"
  },
  {
    "MOLECULE": "CN1CCN(C(=O)O[C@H]2c3nccnc3C(=O)N2c2ccc(Cl)cn2)CC1",
    "LABEL CLASS": "inactive"
  },
  {
    "MOLECULE": "FC(F)(F)c1cccc(C2=CCN(CCc3ccc4ccccc4c3)CC2)c1",
    "LABEL CLASS": "inactive"
  },
  {
    "MOLECULE": "CC[N+](CC)(CC)CC",
    "LABEL CLASS": "inactive"
  },
  {
    "MOLECULE": "CC(C)NCC(O)c1ccccc1Cl (stereo unspecified)",
    "LABEL CLASS": "inactive"
  },
  {
    "MOLECULE": "NCCc1cc(O)c(O)cc1O",
    "LABEL CLASS": "inactive"
  },
  {
    "MOLECULE": "CC1NCCOC1c1ccccc1 (stereo unspecified)",
    "LABEL CLASS": "inactive"
  },
  {
    "MOLECULE": "CC(O)(CS(=O)(=O)c1ccc(F)cc1)C(=O)Nc1ccc(C#N)c(C(F)(F)F)c1 (stereo unspecified)",
    "LABEL CLASS": "active"
  },
  {
    "MOLECULE": "NCC1(CC(=O)O)CCCCC1",
    "LABEL CLASS": "inactive"
  },
  {
    "MOLECULE": "CNCC(O)c1ccc(O)cc1 (stereo unspecified)",
    "LABEL CLASS": "inactive"
  },
  {
    "MOLECULE": "O=C(NC(O)C(Cl)(Cl)Cl)NC(O)C(Cl)(Cl)Cl (stereo unspecified)",
    "LABEL CLASS": "inactive"
  },
  {
    "MOLECULE": "O=P1(NCCCl)OCCCN1CCCl (stereo unspecified)",
    "LABEL CLASS": "inactive"
  }
]
